# System: SR leukemia
# ASSAY COMMENT: NCI tumour cell line growth inhibition, 48 h
Quick reference for TGI among some compounds

NCCCC[C@H](N)C(=O)Nc1ccc(-c2nc3ccccc3s2)cc1: 36.2 µM

Prompt: Request the reported TGI associated with CC(=O)c1c(C)[nH]c(-c2nc3ccc(N4CCN(C)CC4)cc3[nH]2)c1-c1ccc(N(C)C)cc1
Response: 6.81 µM

Prompt: TGI for CS(=O)(=O)CCc1cccc(C(=O)c2cnn(-c3ccc(F)cc3)c2N)c1 ?
Response: > 25 µM

Prompt: So what's the measured TGI for this one? CCC(=C/[C@H](C)C/C=C/C(C)=C/[C@@H](C)C(=O)[C@@H](C)[C@H](O)[C@@H](C)CC)/C=C/[C@@H]1OC(=O)C=C[C@H]1C
Response: 0.115 µM
